- STUDY_SYSTEM: HORK3 protein (human ADP receptor P2TAC) (Homo sapiens, UniProt Q9H244)
- Sequence (Q9H244 whole entry): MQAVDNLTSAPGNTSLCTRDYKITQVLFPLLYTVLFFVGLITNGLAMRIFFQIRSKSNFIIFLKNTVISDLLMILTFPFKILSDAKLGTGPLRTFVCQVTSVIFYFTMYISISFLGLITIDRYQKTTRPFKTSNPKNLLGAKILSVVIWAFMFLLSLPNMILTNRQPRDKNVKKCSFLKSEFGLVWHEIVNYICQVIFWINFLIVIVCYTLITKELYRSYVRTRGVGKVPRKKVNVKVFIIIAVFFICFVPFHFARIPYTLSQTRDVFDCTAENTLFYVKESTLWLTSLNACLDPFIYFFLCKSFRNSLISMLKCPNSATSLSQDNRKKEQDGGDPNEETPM
- PROCEDURE_TEXT: Increase in intracellular Ca2+ concentration in C6-15 cell co-expressing HORK3 protein and Gqi (FLIPR)
- Assay type: cell-based
- Design: expressed in transfected cells; host or cells: C6-15 rat glioma cells, transient co-transfection of pEF-BOS-dhfr-HORK3 and pEF-BOS-Gqi
- CONDITION_DETAILS: C6-15 cells transfected with pEF-BOS-dhfr-HORK3 and pEF-BOS-Gqi; peak values, Logistic regression
I'd appreciate it if you could supply pEC50 values for the items below.
One number for each entry, as −log10 of the molar value.

MOLECULE | TEST_RESULT
Nc1ncnc2c1ncn2[C@@H]1O[C@H](COP(=O)(O)OP(=O)(O)O)[C@@H](O)[C@H]1O [ADP, adenosine 5′-diphosphate] | 6.66

The record that follows has no pEC50 shown yet.
[Q] Requested field: pEC50. Item: CSc1nc(N)c2ncn([C@@H]3O[C@H](COP(=O)(O)OP(=O)(O)O)[C@@H](O)[C@H]3O)c2n1
[A] 8.27

Data credit: patent US7405051B2
